- ASSAY NOTES: chemical genetic growth profiling, strain panel (AID 1159580);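 further: tested at 20 µM; growth read once vehicle control cultures reached saturation at 30 °C; 1 = growth at the plate median or of vehicle wells; lower values mean less growth of the strain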
- APPLIED CONDITIONS: S. cerevisiae deletion strains, growth OD, locus YML016C, strain PPZ1, active compounds read low
Out of some 5,500 compounds screened, about 2,000 (36%) were called active. Roughly 18% stayed inconclusive and do not appear here. The list shows a part of the results.
Listing: normalized growth of selected molecules

Prompt: Please look at this molecule and report its normalized growth: Cn1c(=O)[nH]c2ncn(C)c2c1=O
Response: 1.01 (inactive)

Prompt: Please look at this molecule and report its normalized growth: O=C(O)CC[N+](=O)[O-]
Response: 0.993 (inactive)

Prompt: Please look at this molecule and report its normalized growth: Oc1cccc2cccnc12
Response: 0.0529 (active)

Prompt: Please look at this molecule and report its normalized growth: CN1CCCCC1c1ccc(-c2cccnc2)nc1 (centres undefined)
Response: 1.01 (inactive)

Prompt: Please look at this molecule and report its normalized growth: Cn1c(=O)c2c(ncn2CCCl)n(C)c1=O
Response: 1 (inactive)

Prompt: Please look at this molecule and report its normalized growth: ClC1C(Cl)C(Cl)C(Cl)C(Cl)C1Cl (centres undefined)
Response: 0.945 (inactive)

Prompt: Please look at this molecule and report its normalized growth: COC(=O)c1cc(OC)c(=O)c2c(OC)c(OC)ccc2c1
Response: 1 (inactive)

Prompt: Please look at this molecule and report its normalized growth: COc1ccc([C@@H](C)C(=O)c2ccc(O)cc2O)cc1
Response: 0.981 (inactive)

Prompt: Please look at this molecule and report its normalized growth: CCCCN(CC)c1c([N+](=O)[O-])cc(C(F)(F)F)cc1[N+](=O)[O-]
Response: 1.01 (inactive)

###

- ASSAY NOTES: chemical genetic growth profiling, strain panel (AID 1159580);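 further: tested at 20 µM; growth read once vehicle control cultures reached saturation at 30 °C; 1 = growth at the plate median or of vehicle wells; lower values mean less growth of the strain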
- APPLIED CONDITIONS: S. cerevisiae deletion strains, growth OD, locus YAL040C, strain CLN3, active compounds read low
Hit rate of the full screen: of about 5,500 compounds, about 2,000 (36%) were called active. Another 18% or so got no clear call; they are omitted. The list shows a part of the results.
Just a reminder that ties go to Condition not met: only normalized growth strictly below 1 counts as Condition met.

For orientation, consider the following solved cases.
COc1cc([C@@H]2c3cc4c(cc3[C@H](O)C3COC(=O)[C@@H]32)OCO4)cc(OC)c1OC (some centres undefined) ... Condition not met
c1cnc2c(c1)ccc1cccnc12 ... Condition not met

From here, focus on the item given below.
Prompt: Is normalized growth strictly under 1 for the entry COC(=O)c1c(-c2cc(OC)c(OC)c(OC)c2)c2ccnc(OCc3ncccn3)c2c(=O)n1Cc1ccnc(C)c1 ?
Response: Condition met

###

- ASSAY NOTES: chemical genetic growth profiling, strain panel (AID 1159580);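 further: tested at 20 µM; growth read once vehicle control cultures reached saturation at 30 °C; 1 = growth at the plate median or of vehicle wells; lower values mean less growth of the strain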
- APPLIED CONDITIONS: S. cerevisiae deletion strains, growth OD, locus YHR027C, strain rpn1, active compounds read low
About 2,000 (36%) of roughly 5,500 compounds were called active. Inconclusive results (about 18%) are left out. The list shows a part of the results.
Listing: normalized growth of selected molecules
The response must contain the number and no unit.

CC(=O)NS(=O)(=O)c1ccc(N)cc1 ... 1.02

Prompt: Please look at this molecule and report its normalized growth: CC(=O)CCCCn1c(=O)c2c(ncn2C)n(C)c1=O
Response: 1.02

Prompt: Please look at this molecule and report its normalized growth: CC(=O)OCC1=C(C(=O)O)N2C(=O)[C@@H](NC(=O)CSc3ccncc3)[C@H]2SC1
Response: 1.02

Prompt: Please look at this molecule and report its normalized growth: CC(C)c1cc2c(c(O)c1O)[C@@]1(C(=O)O)CCCC(C)(C)C1CC2 (some centres not stated)
Response: 0.956

Prompt: Please look at this molecule and report its normalized growth: CC1(C)CC23C(=O)CCC(O)C2(C)CCC13 (configuration not stated)
Response: 0.987

Prompt: Please look at this molecule and report its normalized growth: O=C(O)c1cc(=O)c2ccccc2[nH]1
Response: 1

Prompt: Please look at this molecule and report its normalized growth: CC(=O)OC[C@@]1(O)C[C@@]23CCC4c5ccoc5CC[C@]4(C)C2CC[C@@H]1C3 (some centres not stated)
Response: 1.01

Source of measurements: PubChem BioAssay AID1159580
